Target: T1, MGLVKSK(biotin) peptide (XGLVKSK(biotin), X = Met)
T1 construct: also called Nt-Met peptide
T1 peptide: MGLVKSK(Biotin)
Assay: BLI, biotinylated peptide on streptavidin biosensor, 10 µmol/L protein
No end group written: not given here. *: point of attachment. Biotin = O=C1N[C@H]2[C@H](CS[C@H]2CCCCC(=O)*)N1
measured-quantity: binding result

Task: Dear colleague, I am looking for the recorded binding result of the following binder: GID4 S283F variant (residues 116-300), purified with N-terminal His-tag (designed binder, not shown: N-terminal six-histidine tag and TEV protease recognition site from the pET21(+) construct) GVATSLLYSGSKFRGHQKSKGNSYDVEVVLQHVDTGNSYLCGYLKIKGLTEEYPTLTTFFEGEIISKKHPFLTRKWDADEDVDRKHWGKFLAFYQYAKSFNSDDFDYEELKNGDYVFMRWKEQFLVPDHTIKDISGASFAGFYYICFQKSAASIEGYYYHRSSEWYQFLNLTHVPEHSAPIYEFR
Result: binds

Task: Dear colleague, I am looking for the recorded binding result of the following binder: GID4 A252V-S283F double mutant variant (residues 116-300), purified with N-terminal His-tag (designed binder, also called A252V-S283F mutant; not shown: N-terminal six-histidine tag and TEV protease recognition site from the pET21(+) construct) GVATSLLYSGSKFRGHQKSKGNSYDVEVVLQHVDTGNSYLCGYLKIKGLTEEYPTLTTFFEGEIISKKHPFLTRKWDADEDVDRKHWGKFLAFYQYAKSFNSDDFDYEELKNGDYVFMRWKEQFLVPDHTIKDISGVSFAGFYYICFQKSAASIEGYYYHRSSEWYQFLNLTHVPEHSAPIYEFR
Result: binds

Task: Dear colleague, I am looking for the recorded binding result of the following binder: GID4 A252V variant (residues 116-300), purified with N-terminal His-tag (designed binder, not shown: N-terminal six-histidine tag and TEV protease recognition site from the pET21(+) construct) GVATSLLYSGSKFRGHQKSKGNSYDVEVVLQHVDTGNSYLCGYLKIKGLTEEYPTLTTFFEGEIISKKHPFLTRKWDADEDVDRKHWGKFLAFYQYAKSFNSDDFDYEELKNGDYVFMRWKEQFLVPDHTIKDISGVSFAGFYYICFQKSAASIEGYYYHRSSEWYQSLNLTHVPEHSAPIYEFR
Result: binds
